Test system: MDA-MB-231 breast cell adenocarcinoma
Assay: Relative colony forming efficiency after antisense treatment (Table 13, FIG. 11, FIG. 12)
Type: cell-based, human
Conditions: 0.2 μM antisense oligodeoxyribonucleotide phosphorothioate; MDA-MB-231 cells; averages of 2-8 determinations
Strand notation (5' to 3'): a small letter for the sugar, then the base; units joined by * are phosphorothioate-linked, units joined directly phosphodiester-linked; [ ] holds rarer units or linkages, { } end groups; capitals alone tell only the bases. d = 2'-deoxy (DNA)
Answer criterion not met if Reduced relative colony forming efficiency, expressed as % inhibition, MDA-MB-231 is under 90%, and criterion met if it is 90% or more.

GsCCsTCCGsACCsCTTCsCCsATTsG (antisense dG*dCdC*dTdCdCdG*dAdCdC*dCdTdTdC*dCdC*dAdTdT*dG) [AS-II-13-20] | criterion not met
TGGCTGTGCTGGTTAAAGGA (DNA, all phosphorothioate, methylation of C not given here) [AS-II-1659-20] | criterion not met
GGGCACATCTTCAGTTCATT (DNA, all phosphorothioate, methylation of C not given here) [AS-II-1364-20] | criterion met

(Q) Threshold query (Reduced relative colony forming efficiency, expressed as % inhibition, MDA-MB-231 >= 90%) on CGGCGGCGTGTTCTCCTTGT (dC*dG*dG*dC*dG*dG*dC*dG*dT*dG*dT*dT*dC*dT*dC*dC*dT*dT*dG*dT; antisense) [AS-II-280-20]
(A) criterion not met

(Q) Threshold query (Reduced relative colony forming efficiency, expressed as % inhibition, MDA-MB-231 >= 90%) on GGCGACCCCTCACTCCAGCA (antisense dG*dG*dC*dG*dA*dC*dC*dC*dC*dT*dC*dA*dC*dT*dC*dC*dA*dG*dC*dA) [AS-II-114-20]
(A) criterion not met

(Q) Threshold query (Reduced relative colony forming efficiency, expressed as % inhibition, MDA-MB-231 >= 90%) on GCCACAGGATAAAAACACAA (antisense; DNA, all phosphorothioate, methylation of C not given here) [AS-II-2009-20]
(A) criterion met

(Q) Threshold query (Reduced relative colony forming efficiency, expressed as % inhibition, MDA-MB-231 >= 90%) on CCCAGGACACTACACAAGCC (antisense; DNA, all phosphorothioate, methylation of C not given here) [AS-II-2026-20]
(A) criterion not met

(Q) Threshold query (Reduced relative colony forming efficiency, expressed as % inhibition, MDA-MB-231 >= 90%) on TCCTTTATCCCACAACACTC (antisense; DNA, all phosphorothioate, methylation of C not given here) [AS-II-2067-20]
(A) criterion not met

(Q) Threshold query (Reduced relative colony forming efficiency, expressed as % inhibition, MDA-MB-231 >= 90%) on GGTTTTCTCTCAGCAGCGGC (dG*dG*dT*dT*dT*dT*dC*dT*dC*dT*dC*dA*dG*dC*dA*dG*dC*dG*dG*dC; antisense) [AS-II-404-20]
(A) criterion not met
